target_system: HLA-A*01:01
protocol: IEDB peptide-MHC binding, purified MHC/competitive/fluorescence; bounds were set here for any values at or beyond the usual limits of such assays
stated_conditions: source organism: Vaccinia virus Copenhagen
pIC50: −log10 of the molar value.

{"sequence_text": "KSNAKCIEY", "pIC50": 4.38}

---

target_system: HLA-A*23:01
protocol: IEDB peptide-MHC binding, purified MHC/competitive/fluorescence; filed as Kd, often an IC50 or EC50 that approximates it; bounds were set here for any values at or beyond the usual limits of such assays
stated_conditions: source organism: Campylobacter jejuni subsp. jejuni NCTC 11168 = ATCC 700819
pKd: −log10 of the molar value.

{"sequence_text": "LELAEITAE", "pKd": "≤ 4.70"}

---

target_system: HLA-B*83:01
protocol: IEDB peptide-MHC binding, purified MHC/competitive/fluorescence; filed as Kd, often an IC50 or EC50 that approximates it; bounds were set here for any values at or beyond the usual limits of such assays
stated_conditions: source organism: Mycobacterium tuberculosis variant bovis BCG str. Pasteur 1173P2
pKd: −log10 of the molar value.
readout_name: pKd

{"sequence_text": "AIYDTMQYV", "result_modifier": "≤", "observed_value": 5.30}
{"sequence_text": "KPIPHRTVL", "result_modifier": "=", "observed_value": 6.12}

---

target_system: HLA-A*68:02
protocol: IEDB peptide-MHC binding, purified MHC/direct/fluorescence; filed as Kd, often an IC50 or EC50 that approximates it; bounds were set here for any values at or beyond the usual limits of such assays
stated_conditions: source organism: Bacillus anthracis str. A0465
readout_name: Kd

{"sequence_text": "RLLRFTGLF", "readout_name": "Kd", "observed_value": "≥ 20 µM"}

---

target_system: HLA-B*15:09
protocol: IEDB peptide-MHC binding, purified MHC/direct/fluorescence; filed as Kd, often an IC50 or EC50 that approximates it; bounds were set here for any values at or beyond the usual limits of such assays
stated_conditions: source organism: Giardia lamblia ATCC 50803

{"sequence_text": "IFKNLTKPL", "Kd": "≥ 20 µM"}

---

target_system: HLA-A*03:01
protocol: IEDB peptide-MHC binding, purified MHC/direct/fluorescence; filed as Kd, often an IC50 or EC50 that approximates it; bounds were set here for any values at or beyond the usual limits of such assays
stated_conditions: source organism: Lassa virus Josiah
pKd: −log10 of the molar value.
readout_name: pKd

{"sequence_text": "VSNRCPICK", "target_system": "HLA-A*03:01", "observed_value": 6.05}

---

target_system: HLA-A*69:01
protocol: IEDB peptide-MHC binding, purified MHC/direct/fluorescence; filed as Kd, often an IC50 or EC50 that approximates it; bounds were set here for any values at or beyond the usual limits of such assays
stated_conditions: source organism: Influenza A virus (A/whooper swan/Mongolia/6/05(H5N1))
pKd: −log10 of the molar value.

{"sequence_text": "SSDDFALIV", "target_system": "HLA-A*69:01", "pKd": 7.73}

---

target_system: HLA-C*03:03
protocol: IEDB peptide-MHC binding, purified MHC/direct/fluorescence; filed as Kd, often an IC50 or EC50 that approximates it; bounds were set here for any values at or beyond the usual limits of such assays
stated_conditions: source organism: Entamoeba histolytica HM-1:IMSS

{"sequence_text": "FQLYPPQIL", "Kd (nM)": 33}

---

target_system: HLA-A*02:19
protocol: IEDB peptide-MHC binding, purified MHC/direct/fluorescence; filed as Kd, often an IC50 or EC50 that approximates it; bounds were set here for any values at or beyond the usual limits of such assays
stated_conditions: source organism: Lyssavirus rabies
pKd: −log10 of the molar value.

{"sequence_text": "YLDNVGVHI", "pKd": "≤ 4.70"}

---

target_system: HLA-A*02:01
protocol: IEDB peptide-MHC binding, purified MHC/competitive/radioactivity; filed as Kd, often an IC50 or EC50 that approximates it; bounds were set here for any values at or beyond the usual limits of such assays
stated_conditions: source organism: Human alphaherpesvirus 1 strain 17
pKd: −log10 of the molar value.

{"sequence_text": "GIFEDRAPV", "pKd": 6.30}

---

target_system: HLA-B*48:01
protocol: IEDB peptide-MHC binding, purified MHC/competitive/fluorescence; filed as Kd, often an IC50 or EC50 that approximates it; bounds were set here for any values at or beyond the usual limits of such assays
stated_conditions: source organism: Encephalitozoon cuniculi GB-M1
pKd: −log10 of the molar value.
readout_name: pKd

{"sequence_text": "YRFNLRRKM", "readout_name": "pKd", "observed_value": "≤ 4.70"}

---

target_system: HLA-A*31:01
protocol: IEDB peptide-MHC binding, purified MHC/direct/fluorescence; filed as Kd, often an IC50 or EC50 that approximates it; bounds were set here for any values at or beyond the usual limits of such assays
stated_conditions: source organism: Giardia lamblia ATCC 50803
readout_name: Kd

{"sequence_text": "FMGRLGPEY", "target_system": "HLA-A*31:01", "observed_value": "≥ 20000 nM"}
{"sequence_text": "KSNRIPFLY", "target_system": "HLA-A*31:01", "observed_value": "2370 nM"}

---

target_system: HLA-B*40:02
protocol: IEDB peptide-MHC binding, purified MHC/competitive/radioactivity; filed as Kd, often an IC50 or EC50 that approximates it; bounds were set here for any values at or beyond the usual limits of such assays
stated_conditions: source organism: Mammarenavirus machupoense
pKd: −log10 of the molar value.

{"sequence_text": "ADMSKLLNL", "pKd": 6.47}

---

target_system: HLA-A*02:06
protocol: IEDB peptide-MHC binding, purified MHC/competitive/fluorescence; filed as Kd, often an IC50 or EC50 that approximates it; bounds were set here for any values at or beyond the usual limits of such assays
stated_conditions: source organism: Escherichia coli ATCC 8739

{"sequence_text": "GLLDWGMQQ", "Kd, nM": 1550}

---

target_system: HLA-A*26:01
protocol: IEDB peptide-MHC binding, purified MHC/competitive/fluorescence; filed as Kd, often an IC50 or EC50 that approximates it; bounds were set here for any values at or beyond the usual limits of such assays
stated_conditions: source organism: Yersinia pestis Nepal516
pKd: −log10 of the molar value.
readout_name: pKd

{"sequence_text": "YTYATRGIY", "observed_value": 8.21}

---

target_system: HLA-A*03:01
protocol: IEDB peptide-MHC binding, purified MHC/competitive/fluorescence; bounds were set here for any values at or beyond the usual limits of such assays
stated_conditions: source organism: Vaccinia virus
readout_name: IC50 (µM)

{"sequence_text": "LVRSETKQK", "target_system": "HLA-A*03:01", "readout_name": "IC50", "observed_value": 5.02}

---

target_system: HLA-A*02:16
protocol: IEDB peptide-MHC binding, purified MHC/direct/fluorescence; filed as Kd, often an IC50 or EC50 that approximates it; bounds were set here for any values at or beyond the usual limits of such assays
stated_conditions: source organism: Bacillus anthracis str. A0488

{"sequence_text": "WDAYIPHYV", "Kd": "≥ 20 µM"}

---

target_system: HLA-B*15:01
protocol: IEDB peptide-MHC binding, purified MHC/direct/fluorescence; filed as Kd, often an IC50 or EC50 that approximates it; bounds were set here for any values at or beyond the usual limits of such assays
stated_conditions: source organism: Giardia lamblia ATCC 50803

{"sequence_text": "IFKNLTKPL", "target_system": "HLA-B*15:01", "Kd / µM": 0.757}
{"sequence_text": "FMGRLGPEY", "target_system": "HLA-B*15:01", "Kd / µM": 0.14}

---

target_system: HLA-B*15:17
protocol: IEDB peptide-MHC binding, purified MHC/direct/fluorescence; filed as Kd, often an IC50 or EC50 that approximates it; bounds were set here for any values at or beyond the usual limits of such assays
stated_conditions: source organism: Cryptosporidium parvum Iowa II

{"sequence_text": "RAIMTTWTV", "target_system": "HLA-B*15:17", "measure_unit": "nM", "Kd": 60}

---

target_system: HLA-B*18:01
protocol: IEDB peptide-MHC binding, purified MHC/competitive/radioactivity; filed as Kd, often an IC50 or EC50 that approximates it; bounds were set here for any values at or beyond the usual limits of such assays
stated_conditions: source organism: Lymphocytic choriomeningitis virus (strain Armstrong)
readout_name: Kd

{"sequence_text": "AEALGPFQS", "observed_value": "≥ 77.5 µM"}

---

target_system: HLA-A*24:03
protocol: IEDB peptide-MHC binding, purified MHC/direct/fluorescence; filed as Kd, often an IC50 or EC50 that approximates it; bounds were set here for any values at or beyond the usual limits of such assays
stated_conditions: source organism: Salmonella enterica subsp. enterica serovar Typhi
pKd: −log10 of the molar value.

{"sequence_text": "RPQLGVGDV", "target_system": "HLA-A*24:03", "pKd": 5.21}
